Measured values drawn from the supplement of paper PMC10126150 for this set.

The entries below are paired with their reported switch fluorescence ratio.
- Tested on: ATP;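 note: ATP exposure 15 min at 22 °C before imaging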
- PROTOCOL TEXT: switch fluorescence ratio, 500 uM ATP over buffer (Cy3 cluster intensity, sum of 5 cycles each) (fold (ratio)); higher = stronger signal-on switching upon ATP binding; sequences stand for … in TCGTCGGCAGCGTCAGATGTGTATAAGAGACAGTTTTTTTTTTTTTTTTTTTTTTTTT…TC
- EXPERIMENTAL CONDITIONS: aptamer strand: ATP DNA aptamer (quencher-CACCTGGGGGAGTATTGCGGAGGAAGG + anchor), 100 nM annealed; ATP concentration: 500 uM

| ORDERED RESIDUES | switch fluorescence ratio |
| --- | --- |
| TCCATGGGTG | 1.52 |
| GCTTAAACGG | 1.02 |
| GAGCTTTGTT | 0.984 |
| GCAGATCGTG | 1.02 |
| GTGGTAGGCG | 0.975 |
| TATTTGGGTT | 1.07 |
| TTATAGGGTT | 0.991 |
| GGTATTCGGC | 1.01 |
| AAGTGATGGG | 0.988 |
| CCGTCCGGTT | 1.16 |
| ACGTCCGTTT | 1.04 |
| TTTTGATAGA | 1 |
| CCAGCCGGGG | 1.06 |
| CTCTAGTGGC | 1.1 |
| AATAATAGCC | 1.01 |
| TCTAAATTTA | 1.01 |
| TTTTAAAACG | 1.04 |
| GGAGGTGTTA | 1.01 |
| GCCTTTTGTT | 0.995 |
| ATGAGACAGA | 0.999 |
| CTGAGGGGAT | 1.1 |
| CAAATATTTT | 0.996 |
| CCTATCGAAT | 1.97 |
| GGTGTGTTTT | 0.981 |
| TGAAAAGGGC | 0.987 |
| TAATTGACCG | 1.09 |
| AGTAGGTTTT | 1.04 |
| TTTACGTGTT | 0.991 |
| AAACTTAGC | 1.03 |
| AGGGGTGCAG | 0.995 |
| ATTGGCTTT | 0.979 |
| ATGTCAGTGT | 0.985 |
| AGCTTTTTGC | 1.02 |
| GGGCTTTACG | 1.01 |
| GGATTGGACG | 0.976 |
| CGTGCGGGGG | 1.01 |
| CGGGGATGGC | 0.979 |
| AAGTGCTTTT | 1.01 |
| TCGATCGCAT | 2.51 |
| TGGCTGGAAG | 0.988 |
| CGTTTTATGC | 0.947 |
| TGGTCTAGGT | 1.01 |
| TCACTTGAGC | 1.01 |
| CGGTTTACGT | 0.997 |
| TAGTTAGGAG | 0.995 |
| CATATAGTTC | 0.984 |
| CATCTATCCG | 0.963 |
| AATTAGCCAT | 0.987 |
| TATGATGGTG | 1.04 |
| TAAAGATGAG | 1.01 |
| TGTCGACTGT | 0.987 |
| TCTACCTACA | 1.33 |
| GGTAGGGGCG | 1.03 |
| ACCTAATTAG | 1.06 |
| GCGACATGAT | 1.02 |
| GCTGAATTTG | 0.989 |
| AAAACGGAGA | 1.02 |
| CTTCTGTCGT | 1.03 |
| AGGGAGCGAA | 1 |
| ATATAAATGT | 1.02 |
| TTGTGCGTGG | 0.971 |
| TTAGATGGAG | 0.984 |
| ATAGGGAGGG | 1.01 |
| AGGGTCGCCT | 1 |
| TTATCTTGTT | 0.988 |
| TTGGGCTTGC | 1.04 |
| GGACGTAAGG | 0.977 |
| ATTTCTAACT | 1.01 |
| AGGGCAGCGT | 1 |
| TTTTGTCAGG | 0.993 |
| TAAGGCGAAC | 1.03 |
| TGACCCTTCT | 1.14 |
| AGGTTGCGGG | 1 |
| CTATTTATCA | 1.02 |
| CTGGTAGAGG | 0.979 |
| GAGGTAGTCA | 1.01 |
| TTGGTCGCCC | 1.08 |
| AGGGGAGGGA | 1 |
| AGGGTATCAG | 1.01 |
| TCGGGCTGGG | 1.03 |
| TTCACGGTTG | 1.04 |
| ATGTTATTTG | 0.963 |
| ATTAGTGAGC | 1.03 |
| CGGGAGGGAG | 1 |
| TGAATGGGGC | 0.953 |
| ACCCCAAATG | 1.12 |
